Test system: Tyrosine-protein kinase ABL1 (Homo sapiens), P00519 [Y253F]
Conditions: at 0.1 µM
The entries below come with measured inhibition values attached.
QUANTITY_KIND: inhibition (%)

[[record]]
molecule = "Cc1cccc2c1NC(=O)/C2=N\\Nc1ccc(S(N)(=O)=O)cc1"
quantity_kind = "inhibition"
unit_annotation = "%"
measurement = 4.21

[[record]]
molecule = "COc1cc(/C=N/Nc2ncnc3[nH]ncc23)ccc1O"
quantity_kind = "inhibition"
unit_annotation = "%"
measurement = 52.5

[[record]]
molecule = "CNC(=O)c1cc(-c2ccc(F)cc2)cc(-c2ccc(S(=O)(=O)N3CCCC3)cc2)c1N"
quantity_kind = "inhibition"
unit_annotation = "%"
measurement = 3.15


---

The entries below come with measured inhibition values attached.
Target: Angiopoietin-1 receptor (Homo sapiens) (UniProt Q02763)
Sequence (Q02763 whole entry): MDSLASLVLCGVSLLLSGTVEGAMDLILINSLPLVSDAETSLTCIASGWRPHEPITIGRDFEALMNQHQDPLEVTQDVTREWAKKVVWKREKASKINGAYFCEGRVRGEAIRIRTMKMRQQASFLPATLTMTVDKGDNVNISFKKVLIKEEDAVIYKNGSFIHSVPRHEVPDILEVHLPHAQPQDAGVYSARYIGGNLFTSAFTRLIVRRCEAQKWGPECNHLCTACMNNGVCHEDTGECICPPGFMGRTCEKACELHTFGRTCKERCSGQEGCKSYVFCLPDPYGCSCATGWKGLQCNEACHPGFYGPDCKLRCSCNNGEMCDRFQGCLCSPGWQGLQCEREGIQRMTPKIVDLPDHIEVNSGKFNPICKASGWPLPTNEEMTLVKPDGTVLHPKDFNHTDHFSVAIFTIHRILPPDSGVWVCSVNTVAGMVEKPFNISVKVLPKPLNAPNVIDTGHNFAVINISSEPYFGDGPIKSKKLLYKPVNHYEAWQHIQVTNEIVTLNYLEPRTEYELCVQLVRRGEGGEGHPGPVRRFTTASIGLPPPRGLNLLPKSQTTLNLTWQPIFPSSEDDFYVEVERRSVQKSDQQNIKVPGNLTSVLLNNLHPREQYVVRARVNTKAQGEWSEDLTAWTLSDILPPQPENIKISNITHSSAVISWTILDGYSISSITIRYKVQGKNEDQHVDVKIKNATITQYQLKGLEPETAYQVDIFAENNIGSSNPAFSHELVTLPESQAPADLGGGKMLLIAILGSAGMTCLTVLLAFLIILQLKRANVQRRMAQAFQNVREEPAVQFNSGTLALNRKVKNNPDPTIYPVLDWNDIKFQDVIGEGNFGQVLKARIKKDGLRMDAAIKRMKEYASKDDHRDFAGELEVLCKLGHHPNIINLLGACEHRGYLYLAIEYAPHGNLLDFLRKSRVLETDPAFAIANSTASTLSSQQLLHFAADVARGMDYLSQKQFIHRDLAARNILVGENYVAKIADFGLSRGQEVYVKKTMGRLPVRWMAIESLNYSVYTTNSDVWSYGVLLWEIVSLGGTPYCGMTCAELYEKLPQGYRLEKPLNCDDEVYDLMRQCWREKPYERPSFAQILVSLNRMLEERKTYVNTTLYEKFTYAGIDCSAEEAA
Conditions: at 0.1 µM
Description: GSK_PKIS: TIE2 mean inhibition at 0.1 uM [Nanosyn]
QUANTITY_KIND: inhibition (%)

[[record]]
molecule = "c1ccc(COc2ccc(Nc3ncnc4ccc(-c5ccco5)cc34)cc2)cc1"
test_target = "Angiopoietin-1 receptor (Homo sapiens) (UniProt Q02763)"
measurement = 2.64

[[record]]
molecule = "Cc1cccc(Nc2ncc(-c3ccccc3)o2)c1"
test_target = "Angiopoietin-1 receptor (Homo sapiens) (UniProt Q02763)"
measurement = 5.06

[[record]]
molecule = "COc1ccc2[nH]c3c4[nH]c5ccc(OC)cc5c4c4c(c3c2c1)C(=O)NC4=O"
test_target = "Angiopoietin-1 receptor (Homo sapiens) (UniProt Q02763)"
measurement = 1.36


---

Target: Serine/threonine-protein kinase SIK2 (Homo sapiens);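 further: mean inhibition of SNF1LK2 (QIK) kinase activity, from the GSK PKIS screening panel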
Settings: at 1 µM
The entries below come with measured inhibition values attached.
QUANTITY_KIND: inhibition (%)

[[record]]
molecule = "CNC(=O)c1cccc(C#Cc2cncnc2Nc2ccc(OCc3cccc(F)c3)c(Cl)c2)c1"
unit_annotation = "%"
measurement = -1.75

[[record]]
molecule = "CCn1cc(-c2ccnc3[nH]ccc23)c(-c2cccc(NC(=O)Nc3ccc(OCc4ccccc4)cc3)c2)n1"
unit_annotation = "%"
measurement = -0.71

[[record]]
molecule = "CCN1CCC(CC(=O)Nc2n[nH]c3nnc(-c4cccc(F)c4F)cc23)CC1"
unit_annotation = "%"
measurement = 1.81

[[record]]
molecule = "CCn1c(-c2nonc2N)nc2c(C#CC(C)(C)O)nc(OC[C@H](N)c3ccccc3)cc21"
unit_annotation = "%"
measurement = -1.51

[[record]]
molecule = "COC(=O)Nc1nc2ccc(S(=O)(=O)c3ccc(NC(=O)Nc4cc(C(F)(F)F)ccc4F)cc3)cc2[nH]1"
unit_annotation = "%"
measurement = 0.1

[[record]]
molecule = "CCNC(=O)O[C@H]1CN[C@H](C#Cc2cc3ncnc(Nc4ccc(OCc5cccc(F)c5)c(Cl)c4)c3s2)C1"
unit_annotation = "%"
measurement = 4.15

[[record]]
molecule = "COc1cc(/C=N/Nc2ncnc3[nH]ncc23)ccc1O"
unit_annotation = "%"
measurement = 33.1

[[record]]
molecule = "CNC(=O)c1cncc(/C=C/c2ccccc2Cl)c1"
unit_annotation = "%"
measurement = 8.3

[[record]]
molecule = "CCn1c(-c2nonc2N)nc2ccccc21"
unit_annotation = "%"
measurement = 1.28

[[record]]
molecule = "c1ccc(-c2nc3n(c2-c2ccc4c(c2)OCO4)CCC3)nc1"
unit_annotation = "%"
measurement = 3.1

[[record]]
molecule = "CCc1nn2ncccc2c1-c1ccnc(NC2CC2)n1"
unit_annotation = "%"
measurement = 2.21

[[record]]
molecule = "CCn1c(-c2nonc2N)nc2c(C#CC(C)(C)O)ncc(OC3CCNCC3)c21"
unit_annotation = "%"
measurement = 14.8

[[record]]
molecule = "COC(=O)Nc1nc2ccc(Oc3ccc(NC(=O)Nc4cccc(Cl)c4)cc3)cc2[nH]1"
unit_annotation = "%"
measurement = 1.86

[[record]]
molecule = "CCCN(CCS(C)(=O)=O)Cc1ccc(-c2ccc3ncnc(Nc4ccc(OCc5cccc(F)c5)c(Cl)c4)c3c2)o1"
unit_annotation = "%"
measurement = 7.64

[[record]]
molecule = "CC1=C(C(=O)Nc2cc(Cl)c3[nH]ncc3c2)C(c2ccc(C(F)(F)F)cc2)CC(=O)N1 (stereo not drawn)"
unit_annotation = "%"
measurement = 11.8

[[record]]
molecule = "COc1cc2c(cc1Nc1nc(Nc3ccsc3C(N)=O)c3cc[nH]c3n1)N(C(=O)CN(C)C)CCC2(C)C"
unit_annotation = "%"
measurement = 7.78

[[record]]
molecule = "CN(C)CCOc1ccc(-c2nc(-c3ccncc3)c(-c3ccc4c(c3)CC/C4=N\\O)[nH]2)cc1"
unit_annotation = "%"
measurement = 2.63

[[record]]
molecule = "[O-][S+]1CCN(Cc2ccc(-c3ccc4ncnc(Nc5ccc(OCc6cccc(F)c6)c(Cl)c5)c4c3)o2)CC1"
unit_annotation = "%"
measurement = 10.4


Data provenance is ChEMBL document CHEMBL1961873.
